Quick reference for pIC50 among some molecules
target under test: dihydrolipoamide acyltransferase (DlaT) (Mycobacterium tuberculosis)
Sequence (P9WIS7 1-553): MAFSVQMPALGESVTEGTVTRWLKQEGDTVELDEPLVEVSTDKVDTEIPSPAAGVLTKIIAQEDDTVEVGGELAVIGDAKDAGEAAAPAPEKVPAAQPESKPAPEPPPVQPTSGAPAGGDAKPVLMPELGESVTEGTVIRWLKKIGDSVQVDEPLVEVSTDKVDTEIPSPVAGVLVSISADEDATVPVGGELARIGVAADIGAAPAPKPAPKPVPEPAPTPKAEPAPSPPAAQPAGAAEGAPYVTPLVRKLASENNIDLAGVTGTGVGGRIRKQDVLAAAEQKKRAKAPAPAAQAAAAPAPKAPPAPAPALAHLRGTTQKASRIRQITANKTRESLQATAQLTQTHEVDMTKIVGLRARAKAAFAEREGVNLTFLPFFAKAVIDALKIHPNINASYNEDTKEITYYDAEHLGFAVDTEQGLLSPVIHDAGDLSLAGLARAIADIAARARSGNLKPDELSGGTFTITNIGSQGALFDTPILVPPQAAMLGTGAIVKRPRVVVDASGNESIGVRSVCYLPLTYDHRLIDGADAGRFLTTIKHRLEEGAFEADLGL
experiment notes: DlaT inhibition (Dlat IC50); DTNB peroxidase assay with Lpd, DlaT and AhpD
Format: biochemical
measurement context: Dlat IC50 category
pIC50: −log10 of the molar value.

| molecule | pIC50 |
| --- | --- |
| Cc1cc(Cl)ccc1-c1ccc(C=C2SC(=S)N(C3CCCC(C(=O)O)C3)C2=O)o1 (centres unmarked) [Compound C20] | > 5.00 |
| CSc1ccccc1-c1ccc(C=C2SC(=S)N(Nc3ccccc3C(=O)O)C2=O)o1 [Compound D30] | > 5.00 |
| O=C(O)c1ccccc1NN1C(=O)C(=Cc2ccc(-c3cccc(C(F)(F)F)c3)o2)SC1=S [Compound D3] | > 5.00 |
| Cc1ccc(-c2ccc(C=C3SC(=S)N(C4CCC(C(=O)O)CC4)C3=O)o2)cc1 (centres unmarked) [Compound C45] | > 5.00 |
| CSc1cccc(-c2ccc(C=C3SC(=S)N(C4CCC(C(=O)O)CC4)C3=O)o2)c1 (centres unmarked) [Compound C63] | > 5.00 |
| O=C(O)C(Cc1ccccc1)N1C(=O)C(=Cc2ccc(-c3cc(Cl)ccc3Cl)o2)SC1=S (centres unmarked) [Compound B47] | > 5.00 |
| CN(C)S(=O)(=O)c1ccc(-c2ccc(C=C3SC(=S)N(C4CCC(C(=O)O)CC4)C3=O)o2)cc1 (centres unmarked) [Compound C86] | 4.40 to 4.96 |
| O=C(O)CN1C(=O)C(=Cc2ccc(-c3ccc(Cl)cc3)o2)SC1=S [Compound B60] | 4.40 to 4.96 |
| O=C(O)CN1C(=O)C(=Cc2ccc(-c3ccc(C4CCCC4)cc3)o2)SC1=S [Compound B81] | > 5.00 |
| O=C(O)CCCCCN1C(=O)C(=Cc2ccc(-c3cccc(Cl)c3)o2)SC1=S [Compound B12] | > 5.00 |
| COc1ccc(-c2ccc(C=C3SC(=S)N(Nc4ccccc4C(=O)O)C3=O)o2)c(C)c1 [Compound D9] | > 5.00 |
| Cc1cccc(C)c1-c1ccc(C=C2SC(=S)N(C3CCCC(C(=O)O)C3)C2=O)o1 (centres unmarked) [Compound C23] | 4.40 to 4.96 |
| CCCc1ccc(-c2ccc(C=C3SC(=S)N(C4CCC(C(=O)O)CC4)C3=O)o2)cc1 (centres unmarked) [Compound C80] | 4.40 to 4.96 |
| CC(C)C(C(=O)O)N1C(=O)C(=Cc2ccc(-c3ccc(Cl)cc3)o2)SC1=S (centres unmarked) [Compound B103] | > 5.00 |
| O=C(O)C(c1ccccc1)N1C(=O)C(=Cc2ccc(-c3cccc(Cl)c3)o2)SC1=S (centres unmarked) [Compound B2] | > 5.00 |
| Cc1ccccc1-c1cccc(C=C2SC(=S)N(C3CCCC(C(=O)O)C3)C2=O)n1 (centres unmarked) [Compound C10] | 4.10 to 4.39 |
| O=C(O)CN1C(=O)C(=Cc2ccc(-c3ccc(C(=O)c4ccccc4)cc3)o2)SC1=S [Compound B69] | 4.40 to 4.96 |
| O=C(O)c1ccccc1NN1C(=O)C(=Cc2ccc(-c3cccc(-c4ccccc4)c3)o2)SC1=S [Compound D40] | > 5.00 |
| CN(C)c1ccc(-c2ccc(C=C3SC(=S)N(CC(=O)O)C3=O)o2)cc1 [Compound B84] | 4.40 to 4.96 |
| O=C(O)C(c1ccccc1)N1C(=O)C(=Cc2ccc(-c3ccc(Oc4ccccc4)cc3)o2)SC1=S (centres unmarked) [Compound B28] | 4.40 to 4.96 |
| O=C(O)CCN1C(=O)C(=Cc2ccc(-c3ccc(Cc4ccccc4)cc3)o2)SC1=S [Compound B31] | > 5.00 |
| O=C(O)C(Cc1ccc(O)cc1)N1C(=O)C(=Cc2ccc(-c3ccc(Cl)cc3)o2)SC1=S (centres unmarked) [Compound B53] | > 5.00 |
| Cc1cccc(C)c1-c1ccc(C=C2SC(=S)N(Nc3ccccc3C(=O)O)C2=O)o1 [Compound D24] | > 5.00 |
| Cc1cc(Cl)ccc1-c1ccc(C=C2SC(=S)N(Nc3ccccc3C(=O)O)C2=O)o1 [Compound D23] | > 5.00 |
| CCCCc1ccc(-c2ccc(C=C3SC(=S)N(C4CCC(C(=O)O)CC4)C3=O)o2)cc1 (centres unmarked) [Compound C78] | > 5.00 |
| O=C(O)C1CCCC(N2C(=O)C(=Cc3ccc(-c4ccc(C5CCCCC5)cc4)o3)SC2=S)C1 (centres unmarked) [Compound C2] | > 5.00 |
| Cc1ccc(-c2ccc(C=C3SC(=S)N(C4CCCC(C(=O)O)C4)C3=O)o2)c(F)c1 (centres unmarked) [Compound C12] | > 5.00 |
| Cc1ccccc1-c1ccc(C=C2SC(=S)N(Nc3ccccc3C(=O)O)C2=O)o1 [Compound D51] | > 5.00 |
| CC(C)c1ccc(-c2ccc(C=C3SC(=S)N(C(C(=O)O)c4ccccc4)C3=O)o2)cc1 (centres unmarked) [Compound B66] | > 5.00 |
| O=C(O)C1CCCC(N2C(=O)C(=Cc3ccc(-c4ccccc4Cl)s3)SC2=S)C1 (centres unmarked) [Compound C32] | > 5.00 |
| O=C(O)C(c1ccccc1)N1C(=O)C(=Cc2ncc(-c3cccc(Cl)c3)o2)SC1=S (centres unmarked) [Compound B35] | 4.40 to 4.96 |
| CC(=O)Nc1ccc(-c2ccc(C=C3SC(=S)N(C4CCC(C(=O)O)CC4)C3=O)o2)cc1 (centres unmarked) [Compound C76] | > 5.00 |
